The reported numbers originate from the RNAGym collection of RNA variant scans (doi:10.7554/elife.80360).

B1: Hairpin Ribozyme (parent)
chain: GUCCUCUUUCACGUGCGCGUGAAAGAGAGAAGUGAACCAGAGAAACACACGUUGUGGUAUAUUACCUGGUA

# Variants of: B1
# TEST_PROTOCOL: self-cleavage, relative activity (ratio to wild type); higher = more cleavage; co-transcriptional
MEASURED_METRIC: self-cleavage
Reply briefly: the number, and no unit.

- VARIANT_CODE: "C6U A41G"
  self-cleavage: 0.768

Reported self-cleavage for A35G U55C : what is it? 0.3

What do you get for C10U G25C ? 0.487

What do you get for A41U G69U ? 0.348

What do you get for G21C U67C ? 0.18

What do you get for `A28G` ? 1.12

What do you get for A22U A28U ? 0.67
